target: N-type calcium channels (Cav2.2) (Rattus norvegicus (Rat), UniProt Q02294); test: biochemical; type: binding; details: class symbol; rat cerebral cortex, [125I]ω-conotoxin GVIA 0.001 nM, 30 minutes at room temperature; read-out: IC50 Cav2.2
pIC50: −log10 of the molar value. Square brackets hold non-standard residues; d marks the D form. Peptide text beside a SMILES is read from it. * marks the point of attachment. Dab(3S-OH) = NC[C@H](O)[C@H](N)C(=O)O; Phe(2-F) = N[C@@H](Cc1ccccc1F)C(=O)O; ΔZArg = N=C(N)NCC/C=C(\N)C(=O)O; dOrn = NCCC[C@@H](N)C(=O)O; NH(CH2)4NH2 = NCCCCN*
measurement label: pIC50

Prompt line: Enter pIC50 (test system N-type calcium channels (Cav2.2) (Rattus norvegicus (Rat), UniProt Q02294)) for CC(C)[C@H](NC(=O)[C@@H](NC(=O)[C@@H](N)CCCCN)[C@@H](O)CN)C(=O)NCC(=O)N[C@H](CCCN)C(=O)N1CCC[C@H]1C(=O)N[C@@H](Cc1cnc[nH]1)C(=O)N[C@@H](CCCCN)C(=O)N/C(=C\CCNC(=N)N)C(=O)N[C@@H](CCCCN)C(=O)NCCCCN [212.1] (H-K[Dab(3S-OH)]VG[dOrn]PHK[ΔZArg]K-{NH(CH2)4NH2})
Response line: > 7.52

Prompt line: // fetch pIC50 for C[C@H](NC(=O)[C@@H](NC(=O)[C@@H](N)CCCCN)[C@@H](O)CN)C(=O)NCC(=O)N[C@H](CCCN)C(=O)N1CCC[C@H]1C(=O)N[C@@H](Cc1ccc(O)cc1)C(=O)N[C@@H](CCCCN)C(=O)N/C(=C\CCNC(=N)N)C(=O)O [24.138] (H-K[Dab(3S-OH)]AG[dOrn]PYK[ΔZArg]-OH) ; system: N-type calcium channels (Cav2.2) (Rattus norvegicus (Rat), UniProt Q02294)
Response line: < 6.52

Prompt line: State pIC50 on N-type calcium channels (Cav2.2) (Rattus norvegicus (Rat), UniProt Q02294). Entry: C[C@H](NC(=O)[C@@H](NC(=O)[C@@H](N)CCCCN)[C@@H](O)CN)C(=O)NCC(=O)N[C@H](CCCN)C(=O)N1CCC[C@H]1C(=O)N[C@@H](Cc1ccccc1F)C(=O)N[C@@H](CCCCN)C(=O)N/C(=C\CCNC(=N)N)C(=O)O [24.151] (H-K[Dab(3S-OH)]AG[dOrn]P[Phe(2-F)]K[ΔZArg]-OH)
Response line: < 6.52

* * *

target: N-type calcium channels (Cav2.2) (Rattus norvegicus (Rat)); assay: biochemical; format: binding; conditions: class symbol; rat cerebral cortex, [125I]ω-conotoxin GVIA 0.001 nM, 30 minutes at room temperature; read-out: IC50 Cav2.2
pIC50: −log10 of the molar value. Square brackets hold non-standard residues; d marks the D form. Peptide text beside a SMILES is read from it. * marks the point of attachment. Dab(3S-OH) = NC[C@H](O)[C@H](N)C(=O)O; ΔZArg = N=C(N)NCC/C=C(\N)C(=O)O; dOrn = NCCC[C@@H](N)C(=O)O; Dab = NCC[C@H](N)C(=O)O; NH(CH2)4NH2 = NCCCCN*
measurement label: pIC50

Prompt line: Recall the reported pIC50 of N=C(N)NCC/C=C(\NC(=O)[C@H](CCCCN)NC(=O)[C@H](Cc1cnc[nH]1)NC(=O)[C@@H]1CCCN1C(=O)[C@@H](CCCN)NC(=O)CNC(=O)[C@H](CCN)NC(=O)[C@@H](NC(=O)[C@@H](N)CCCCN)[C@@H](O)CN)C(=O)N[C@@H](CCCCN)C(=O)NCCCCN [21.1] (H-K[Dab(3S-OH)][Dab]G[dOrn]PHK[ΔZArg]K-{NH(CH2)4NH2}) when tested on N-type calcium channels (Cav2.2) (Rattus norvegicus (Rat)).
Response line: > 7.52

Prompt line: For N-type calcium channels (Cav2.2) (Rattus norvegicus (Rat)), give pIC50 of the listed compound: N=C(N)NCC/C=C(\NC(=O)[C@H](CCCCN)NC(=O)[C@H](Cc1c[nH]cn1)NC(=O)[C@@H]1CCCN1C(=O)[C@@H](CCCN)NC(=O)CNC(=O)[C@@H](NC(=O)[C@@H](NC(=O)[C@@H](N)CCCCN)[C@@H](O)CN)[C@@H](O)CN)C(=O)N[C@@H](CCCCN)C(=O)NCCCCN [Odilomycin C, reference compound] (H-K[Dab(3S-OH)][Dab(3S-OH)]G[dOrn]PHK[ΔZArg]K-{NH(CH2)4NH2}; N-terminus and C-terminus assumed)
Response line: > 7.52

Prompt line: Provide pIC50, recorded with N-type calcium channels (Cav2.2) (Rattus norvegicus (Rat)), of C[C@H](NC(=O)[C@@H](NC(=O)[C@@H](N)CCCCN)[C@@H](O)CN)C(=O)NCC(=O)N[C@H](CCCN)C(=O)N1CCC[C@H]1C(=O)N[C@@H](Cc1ccc(O)cc1)C(=O)N[C@@H](CCCCN)C(=O)N/C(=C\CCNC(=N)N)C(=O)N[C@@H](CCCCN)C(=O)NCCCCN [24.20] (H-K[Dab(3S-OH)]AG[dOrn]PYK[ΔZArg]K-{NH(CH2)4NH2})
Response line: > 7.52
